Where these numbers come from: ChEMBL document CHEMBL1201862

Test system: K562
Assay: NCI tumour cell line growth inhibition, 48 h
Activity calls are given as the source filed them. Rule as the data show it: active = GI50 up to about 1.1 µM and inactive = higher.
Select the correct class. Options are active, inactive and nothing else.

Task: GET /call?item= CC(SC(=S)N1CCOCC1)C(=O)Nc1nnc(-c2ccccc2)o1 (stereo not drawn) returns the recorded outcome of this test.
Output: inactive

Task: In this assay, the call recorded for `CC1=C(N2CC2)C(=O)C(CO)=C(N2CC2)C1=O` was what?
Output: active

Task: Given `CN(C)c1cccc(OC(=O)NCCCl)c1` , state the outcome it received in this test.
Output: inactive

Task: Could you kindly confirm the outcome this assay logged for CCCCS(=O)(=O)CCC(N)P(=O)(O)O (stereo not drawn) ?
Output: inactive

Task: Please share the test call associated with Cc1cc(C2CC(O)C(CO)O2)c(F)cc1F (stereo not drawn) .
Output: inactive

Task: GET /call?item= `CC1=NN2C(c3ccc([N+](=O)[O-])cc3)=CSC2=NC(C)(C)C1` returns the recorded outcome of this test.
Output: inactive

Task: Hey, what did the test say about O=C(O)CCC(NC(=O)c1ccccc1)C(=O)O (stereo not drawn) ?
Output: inactive

Task: Hello, I am checking results. What call was entered for `CC(=O)NNC(=S)N/C=C1/C(=O)Oc2ccccc2C1=O` ?
Output: inactive

====

System: NCI-H226
Assay: NCI tumour cell line growth inhibition, 48 h
Activity calls are given as the source filed them. No stated cut-off is given here; in the data, active = GI50 up to about 1.1 µM and inactive = higher.
What GI50 was measured for each of the following?

Task: Reported GI50, molecule `COc1ccc(-c2cc(-c3ccccc3)nc(N)n2)c(O)c1` : ____
Output: > 100 µM (inactive)

Task: // GI50 lookup, key: COc1cccc(/C=C2\CCC(C)(CN(C)C)C2=O)c1 (stereo not drawn)
Output: > 100 µM (inactive)

Task: What measured GI50 goes with CC(O)(c1ccccc1)c1nccc2ccccc12 (stereo not drawn) ?
Output: 31.5 µM (inactive)

====

System: K562
Experiment: NCI tumour cell line growth inhibition, 48 h
The source made the active and inactive calls. No stated cut-off is given here; in the data, active = GI50 up to about 1.1 µM and inactive = higher.
// allowed return values: active, inactive

Task: Identify the outcome logged in this assay for the compound shown: COc1ccccc1/C=C1\CCC(CNc2ccc(Cl)cc2)C1=O (stereo not drawn)
Output: active

Task: Please share the test call associated with C=CCN1C(=O)CC2[C@@H]3CCc4cc(O)ccc4C3CC[C@]2(C)C1=O (stereo partly drawn) .
Output: inactive

Task: Field: outcome | Entry: `C/C(=N\Nc1nnc(S)n1N)c1c(O)cc(C)oc1=O`
Output: inactive

====

Tested on: SK-MEL-28
Assay: NCI tumour cell line growth inhibition, 48 h
Activity calls are given as the source filed them. No stated cut-off is given here; in the data, active = GI50 up to about 1.1 µM and inactive = higher.
Assign GI50 to each entry below.

Task: Give SK-MEL-28 GI50 for `COc1ccc(-c2cc(-c3ccccc3)nc(N)n2)c(O)c1`
Output: > 83.4 µM (inactive)

Task: GI50 of `O=C(/C=C/c1cccc([N+](=O)[O-])c1)N1CCN(CCOC(c2ccccc2)c2ccccc2)CC1` on SK-MEL-28?
Output: 25.9 µM (inactive)

Task: For the record `Cc1occc1C(=S)Nc1ccc(Cl)c(C(=O)OC(C(C)C)C(C)C)c1` , what value of GI50 is listed for SK-MEL-28?
Output: 12.5 µM (inactive)

Task: Query GI50 on SK-MEL-28 for `Cc1cc(-c2nc3ccccc3s2)ccc1NC(=O)[C@H](C)N`
Output: 15.7 µM (inactive)

Task: So what GI50 did `O=C(CCN(C(=O)O)S(=O)(=O)c1ccc(NC(=O)c2ccccc2)cc1)Nc1ccccc1` get with SK-MEL-28?
Output: > 100 µM (inactive)

Task: Write down the reported GI50 of `NNC(=O)CC(=O)Nc1cccc(Cl)c1` , test system: SK-MEL-28.
Output: > 100 µM (inactive)

Task: Which measured GI50 belongs to `Cc1c(/C=N/NC(=S)Nc2ccccc2)c(=O)n(-c2ccccc2)n1C` , tested on SK-MEL-28?
Output: > 100 µM (inactive)

Task: Please provide the recorded GI50 for C=C1NC(=O)C(CC(C(=O)C(=O)Nc2c(C)cccc2C(C)(C)C)C(=O)c2ccc3ccccc3c2)C(=O)N1 (stereo unspecified) , tested on SK-MEL-28.
Output: > 100 µM (inactive)

Task: For the record `O=C(c1ccccc1)c1c2ccccn2c2cccc[n+]12` , what value of GI50 is listed for SK-MEL-28?
Output: > 100 µM (inactive)

Task: SK-MEL-28 / GI50 / `COc1ccc(NC(=O)C/C(C)=N\N=C(N)N)c([N+](=O)[O-])c1` : value?
Output: > 100 µM (inactive)

Task: Request: GI50, test system SK-MEL-28, entry `C(CCc1nnc2c(n1)CCCC2)Cc1nnc2c(n1)CCCC2`
Output: > 100 µM (inactive)

Task: Form entry - test system: SK-MEL-28; read-out: GI50; compound: `C[n+]1ccc2[nH]c3ccccc3c2c1`
Output: > 100 µM (inactive)

Task: Please provide the recorded GI50 for CCN(CC)CCCN1CCc2c([nH]c3ccccc23)C1c1cccnc1 (stereo unspecified) , tested on SK-MEL-28.
Output: 38.4 µM (inactive)

Task: Find the measured GI50: item `COc1ccc(S(=O)(=O)N[C@H](C(=O)O)c2ccccc2)cc1` , target or system SK-MEL-28.
Output: > 100 µM (inactive)

Task: Enter reported GI50 observed with SK-MEL-28 for `Cc1cc(Cl)nc(NC(=O)CSc2ccc(Cl)cc2)n1`
Output: > 100 µM (inactive)

Task: Form entry - test system: SK-MEL-28; read-out: GI50; compound: CC(C)(C)c1ccc(S(=O)(=O)N2C(c3cccc(C4CC[C@@H](C(=O)O)N4S(=O)(=O)c4ccc(C(C)(C)C)cc4)c3)CC[C@H]2C(=O)O)cc1 (stereo partly specified)
Output: > 100 µM (inactive)
